# Target System: Peroxisome proliferator-activated receptor alpha (Homo sapiens)
# Sequence (Q07869 whole entry, the tested form may be a part): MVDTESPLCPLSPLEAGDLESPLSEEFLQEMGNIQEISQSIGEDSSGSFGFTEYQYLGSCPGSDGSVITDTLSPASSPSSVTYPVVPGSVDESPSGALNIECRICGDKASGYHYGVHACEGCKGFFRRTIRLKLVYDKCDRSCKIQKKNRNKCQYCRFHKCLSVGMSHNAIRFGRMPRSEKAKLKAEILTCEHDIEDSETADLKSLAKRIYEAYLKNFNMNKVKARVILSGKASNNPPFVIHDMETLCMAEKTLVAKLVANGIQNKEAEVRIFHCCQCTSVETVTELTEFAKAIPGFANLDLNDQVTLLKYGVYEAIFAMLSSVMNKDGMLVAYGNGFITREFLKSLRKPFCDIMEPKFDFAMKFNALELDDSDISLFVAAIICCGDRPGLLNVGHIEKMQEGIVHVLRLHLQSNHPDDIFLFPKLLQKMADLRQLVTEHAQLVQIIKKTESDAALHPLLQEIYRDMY
# Protocol Notes: Agonist activity at human recombinant PPARalpha LBD expressed in african green monkey COS7 cells coexpressing GAL4 by luciferase reporter gene transactivation assay
# Format: functional, cell-based, COS-7
Measured Parameter: EC50

Consider the compound `O=C1NC(=S)S/C1=C\c1ccc(OCCCN2CCCCC2)cc1` and give its measured EC50. > 10 µM

###

# Target System: Histamine H3 receptor (Homo sapiens, UniProt Q9Y5N1)
# Sequence (Q9Y5N1 whole entry): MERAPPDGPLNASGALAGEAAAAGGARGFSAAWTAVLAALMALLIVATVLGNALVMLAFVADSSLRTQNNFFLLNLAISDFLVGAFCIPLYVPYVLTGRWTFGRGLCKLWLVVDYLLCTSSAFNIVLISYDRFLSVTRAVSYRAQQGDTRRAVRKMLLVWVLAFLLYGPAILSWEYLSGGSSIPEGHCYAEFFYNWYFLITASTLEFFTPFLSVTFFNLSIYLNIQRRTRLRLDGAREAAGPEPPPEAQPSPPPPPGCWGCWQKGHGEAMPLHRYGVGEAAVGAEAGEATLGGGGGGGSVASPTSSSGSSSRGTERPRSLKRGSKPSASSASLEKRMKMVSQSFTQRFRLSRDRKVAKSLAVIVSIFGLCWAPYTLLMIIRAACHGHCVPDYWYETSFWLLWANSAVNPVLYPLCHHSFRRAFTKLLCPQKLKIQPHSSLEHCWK
# Protocol Notes: Displacement of [125I]Iodoproxyfan from human histamine H3 receptor expressed in HEK293 cells after 60 mins by scintillation counting
# Format: cell-based
Measured Parameter: log10 Ki (log10 of the value in nM)
Transform log10 | Measure Ki | Unit nM

API: value(readout=log10 Ki, system=Histamine H3 receptor (Homo sapiens, UniProt Q9Y5N1)) for record O=C1NC(=O)C(Cc2ccc(OCCCN3CCCCC3)cc2)S1 (stereo unspecified) 1.70

API: value(readout=log10 Ki, system=Histamine H3 receptor (Homo sapiens, UniProt Q9Y5N1)) for record O=C(O)C1CSC(c2ccc(OCCCN3CCCCC3)cc2)N1 (stereo unspecified) 1.00

API: value(readout=log10 Ki, system=Histamine H3 receptor (Homo sapiens, UniProt Q9Y5N1)) for record `O=C1NC(=S)S/C1=C\c1ccc(OCCCN2CCCCC2)cc1` 0.70

API: value(readout=log10 Ki, system=Histamine H3 receptor (Homo sapiens, UniProt Q9Y5N1)) for record COC(=O)C1CSC(c2ccc(OCCCN3CCCCC3)cc2)N1 (stereo unspecified) 0.60

API: value(readout=log10 Ki, system=Histamine H3 receptor (Homo sapiens, UniProt Q9Y5N1)) for record `c1cc(C2=NCCN2)ccc1OCCCN1CCCCC1` 0.90

API: value(readout=log10 Ki, system=Histamine H3 receptor (Homo sapiens, UniProt Q9Y5N1)) for record `O=C1NC(=O)/C(=C/c2ccc(OCCCN3CCCCC3)cc2)S1` 0.90
